# Tested on: A549luc cells
EXPERIMENTAL READOUT: GI50
Write the quantity with the unit trailing the number.

The cases that follow already have their GI50 on record.
# input Item O=S(=O)(N[C@@H]1CCC[C@H](n2c3ccccc3c3ccccc32)[C@H]1O)c1ccc(OC(F)(F)F)cc1 (single isomer, unassigned) has what recorded GI50?
# output 7.5 µM

# input What do you get for O=S(=O)(N[C@H]1CCC[C@@H](N2c3ccccc3Oc3ccccc32)[C@@H]1O)c1ccc(OC(F)(F)F)cc1 (single isomer, unassigned) ?
# output 7.5 µM

Attention now shifts to the item below.
# input Item O=S(=O)(N[C@@H]1CCCC(n2c3ccccc3c3ccccc32)[C@H]1O)c1ccc(OC(F)(F)F)cc1 (mixture of isomers) has what recorded GI50?
# output 7.5 µM

###

# System: A549luc cells
EXPERIMENTAL READOUT: GI50 (µM)
# number only, unit µM dropped from output

The cases that follow already have their GI50 on record.
# input Look up GI50 with A549luc cells for this compound: O=S(=O)(N[C@@H]1CCCC(N2c3ccccc3Oc3ccccc32)[C@H]1O)c1ccc(OC(F)(F)F)cc1 (mixture of isomers) [Example 1]
# output 7.5

# input What do you get for O=S(=O)(N[C@@H]1CCC[C@H](N2c3ccccc3Oc3ccccc32)[C@H]1O)c1ccc(OC(F)(F)F)cc1 (single isomer, unassigned) [Example 1a] ?
# output 7.5

Attention now shifts to the item below.
# input Look up GI50 with A549luc cells for this compound: O=S(=O)(N[C@H]1CCC[C@@H](n2c3ccccc3c3ccccc32)[C@@H]1O)c1ccc(OC(F)(F)F)cc1 (single isomer, unassigned) [Example 3b]
# output 10
